- Test system: TNFα
- procedure details: PBMC cytokine profiling assay, TNFα induction
- Format: cell-based
- experimental context: human PBMCs, 24 hours incubation
Mark Met only when AC50 stays strictly below 1 µM. Values equal to the cut-off are Not met.

>  <compound>
CCCC[C@@](C)(Nc1nc(N)nc2cccnc12)C(C)O (single isomer, unassigned) [Example 96]

>  <tested on>
TNFα

>  <discrete label>
Not met

$$$$
>  <compound>
CCCC[C@@H](Nc1nc(N)nc2cccnc12)[C@H](C)O

>  <tested on>
TNFα

>  <discrete label>
Not met

$$$$
>  <compound>
CCCC[C@@](C)(Nc1nc(N)nc2cc(F)cnc12)C(C)O (single isomer, unassigned) [Example 95]

>  <tested on>
TNFα

>  <discrete label>
Met

$$$$
>  <compound>
CCCCC[C@](C)(CO)Nc1nc(N)nc2cc(F)cnc12

>  <tested on>
TNFα

>  <discrete label>
Met

$$$$
>  <compound>
CCCC[C@@](C)(Nc1nc(N)nc2cccnc12)C(C)O (single isomer, unassigned) [Example 97]

>  <tested on>
TNFα

>  <discrete label>
Met

$$$$
>  <compound>
CCCCC(Nc1nc(N)nc2cccnc12)C(C)O (stereo not shown)

>  <tested on>
TNFα

>  <discrete label>
Not met

$$$$

Where do the numbers come from? From patent US12377100B2.
